molecular target: C-C chemokine receptor type 2 (Homo sapiens, UniProt P41597); assay: Concentration required to inhibit [125I]MCP-1 (Monocyte Chemoattractant Protein-1) binding to THP-1 cell; assay type: cell-based
Sequence (P41597 whole entry): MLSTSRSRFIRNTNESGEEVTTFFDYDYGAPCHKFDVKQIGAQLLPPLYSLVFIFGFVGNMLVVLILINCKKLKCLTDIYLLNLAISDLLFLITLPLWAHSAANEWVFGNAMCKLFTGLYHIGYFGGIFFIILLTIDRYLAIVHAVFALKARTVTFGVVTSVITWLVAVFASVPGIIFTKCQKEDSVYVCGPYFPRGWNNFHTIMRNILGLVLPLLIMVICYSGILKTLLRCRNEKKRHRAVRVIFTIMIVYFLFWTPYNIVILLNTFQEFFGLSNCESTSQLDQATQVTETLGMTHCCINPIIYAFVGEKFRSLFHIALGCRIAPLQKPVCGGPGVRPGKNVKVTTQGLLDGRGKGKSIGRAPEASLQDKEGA
pIC50: −log10 of the molar value.

| compound | experimental-system | pIC50 |
| --- | --- | --- |
| CS(=O)(=O)c1ccc(CN2CCCN(CCC(O)(c3ccc(F)cc3)c3cccc(O)c3)CC2)cc1 (centres undefined) | C-C chemokine receptor type 2 (Homo sapiens, UniProt P41597) | 5.82 |
| COc1cccc(C(O)(CCN2CCCN(Cc3ccc(S(C)(=O)=O)cc3)CC2)c2ccccc2)c1 (centres undefined) | C-C chemokine receptor type 2 (Homo sapiens, UniProt P41597) | 5.10 |
| CS(=O)(=O)c1ccc(CN2CCCN(CCC(O)(c3ccc(Cl)cc3)c3cccc(O)c3)CC2)cc1 (centres undefined) | C-C chemokine receptor type 2 (Homo sapiens, UniProt P41597) | 5.82 |
| CS(=O)(=O)c1ccc(CN2CCCN(CCC(c3ccccc3)c3ccccc3)CC2)cc1 | C-C chemokine receptor type 2 (Homo sapiens, UniProt P41597) | 4.89 |
| Cc1cccc(C(O)(CCN2CCCN(Cc3ccc(S(C)(=O)=O)cc3)CC2)c2ccccc2)c1 (centres undefined) | C-C chemokine receptor type 2 (Homo sapiens, UniProt P41597) | 4.80 |
| O=[N+]([O-])c1ccc(CN2CCCN(CCC(c3ccccc3)c3ccccc3)CC2)cc1 | C-C chemokine receptor type 2 (Homo sapiens, UniProt P41597) | 4.72 |
| CN(C)c1ccc(C(O)(CCN2CCCN(Cc3ccc(S(C)(=O)=O)cc3)CC2)c2ccc(N(C)C)cc2)cc1 | C-C chemokine receptor type 2 (Homo sapiens, UniProt P41597) | 4.35 |
| CS(=O)(=O)c1ccc(CN2CCCN(CCC(O)(c3ccc(O)cc3)c3ccc(O)cc3)CC2)cc1 | C-C chemokine receptor type 2 (Homo sapiens, UniProt P41597) | 4.68 |
| CS(=O)(=O)c1ccc(CN2CCCN(CCC(O)(c3ccccc3)c3cccc(F)c3)CC2)cc1 (centres undefined) | C-C chemokine receptor type 2 (Homo sapiens, UniProt P41597) | 4.92 |
| Cc1csc(C(=O)NNC(=O)CN2CCCN(CCC(O)(c3ccccc3)c3cccc(O)c3)CC2)c1 (centres undefined) | C-C chemokine receptor type 2 (Homo sapiens, UniProt P41597) | 5.19 |
| CS(=O)(=O)c1ccc(CN2CCCN(CCC(O)(c3cccc(O)c3)c3cc(F)cc(F)c3)CC2)cc1 (centres undefined) | C-C chemokine receptor type 2 (Homo sapiens, UniProt P41597) | 5.03 |
| CS(=O)(=O)c1ccc(CN2CCCN(CCC(O)(c3ccc(F)cc3)c3ccc(F)cc3)CC2)cc1 | C-C chemokine receptor type 2 (Homo sapiens, UniProt P41597) | 5.15 |
| Cc1csc(C(=O)NNC(=O)CN2CCCN(Cc3ccc(Cl)cc3)CC2)c1 | C-C chemokine receptor type 2 (Homo sapiens, UniProt P41597) | 5.13 |
| CS(=O)(=O)c1ccc(CN2CCCN(CCC(O)(c3ccccc3)c3cccc(CO)c3)CC2)cc1 (centres undefined) | C-C chemokine receptor type 2 (Homo sapiens, UniProt P41597) | 5.40 |

---

target: C-C chemokine receptor type 2 (Homo sapiens); assay: Percent inhibition of […] (Monocyte Chemoattractant Protein-1) binding to THP-1 cells at 100 uM; type: cell-based
Sequence (P41597 whole entry, looked up): as the sequence (P41597 whole entry) above
quantity: inhibition

| smiles-record | result |
| --- | --- |
| N#Cc1ccc(CN2CCCN(CCC(c3ccccc3)c3ccccc3)CC2)cc1 | 74% |
| CS(=O)(=O)c1ccc(CN2CCCN(CCC(c3ccccc3)c3ccccc3)CC2)cc1 | 91% |
| c1ccc(C(CCN2CCCN(Cc3cccnc3)CC2)c2ccccc2)cc1 | 69% |
| O=[N+]([O-])c1ccccc1CN1CCCN(CCC(c2ccccc2)c2ccccc2)CC1 | 7% |
| O=[N+]([O-])c1cccc(CN2CCCN(CCC(c3ccccc3)c3ccccc3)CC2)c1 | 35% |
| CCCN1CCCN(CCC(c2ccccc2)c2ccccc2)CC1 | 15% |
| O=[N+]([O-])c1ccc(CN2CCCN(CCC(c3ccccc3)c3ccccc3)CC2)cc1 | 87% |
| COc1ccc(CN2CCCN(CCC(c3ccccc3)c3ccccc3)CC2)cc1 | 7% |
| c1ccc(C(CCN2CCCN(Cc3ccccn3)CC2)c2ccccc2)cc1 | 35% |
| Clc1ccc(CN2CCCN(CCC(c3ccccc3)c3ccccc3)CC2)cc1 | 8% |
| FC(F)(F)c1ccc(CN2CCCN(CCC(c3ccccc3)c3ccccc3)CC2)cc1 | 25% |
| c1ccc(CN2CCCN(CCC(c3ccccc3)c3ccccc3)CC2)cc1 | 24% |
| COC(=O)c1ccc(CN2CCCN(CCC(c3ccccc3)c3ccccc3)CC2)cc1 | 1% |
| c1ccc(C(CCN2CCCN(Cc3ccncc3)CC2)c2ccccc2)cc1 | 87% |
